settings: in ethanol, 298.15 K
MEASURED_ENDPOINT: solubility (mole fraction)
Numbers only.

[in] Give the reported value of solubility (mole fraction) for this record: O=C1OC(=O)[C@H]2[C@@H]1[C@@H]1C=C[C@H]2C1
[out] 0.0056

---

conditions: in DMF, 308.15 K
MEASURED_ENDPOINT: solubility (mole fraction)
Answers are plain numbers.

[in] Give the reported value of solubility (mole fraction) for this record: O=C1OC(=O)[C@H]2[C@@H]1[C@@H]1C=C[C@H]2C1
[out] 0.171

---

conditions: in n-pentyl acetate, 308.15 K
MEASURED_ENDPOINT: solubility (mole fraction)
Give bare numbers.

[in] Give the reported value of solubility (mole fraction) for this record: O=C1OC(=O)[C@H]2[C@@H]1[C@@H]1C=C[C@H]2C1
[out] 0.0535
